All figures here come from paper PMC12802937.

biological target: T1, RNF-MD complex (strep-SUMO-RNF20 residues 321–900 with MBP-RNF40 residues 327–926) (human, UniProt Q5VTR2 321-900; O75150 327-926); test: SPR; RNF-MD immobilised on a CM5 chip, intein-WAC flown over; Biacore 8K, 25°C, 20 mM HEPES (pH 7.5), 200 mM sodium chloride, 0.02% Tween 20; details: both partners purified
T1 construct: RNF20, human, residues 321-900; RNF40, human, residues 327-926; heterodimer; also called RNF20/RNF40; WT; source: E. coli BL21 Rosetta (DE3), purified from the mixed cell extract (strep-tactin, dextrin, gel filtration); copies: 1 + 1
T1 sequence (Q5VTR2 321-900, chain 1 of 2): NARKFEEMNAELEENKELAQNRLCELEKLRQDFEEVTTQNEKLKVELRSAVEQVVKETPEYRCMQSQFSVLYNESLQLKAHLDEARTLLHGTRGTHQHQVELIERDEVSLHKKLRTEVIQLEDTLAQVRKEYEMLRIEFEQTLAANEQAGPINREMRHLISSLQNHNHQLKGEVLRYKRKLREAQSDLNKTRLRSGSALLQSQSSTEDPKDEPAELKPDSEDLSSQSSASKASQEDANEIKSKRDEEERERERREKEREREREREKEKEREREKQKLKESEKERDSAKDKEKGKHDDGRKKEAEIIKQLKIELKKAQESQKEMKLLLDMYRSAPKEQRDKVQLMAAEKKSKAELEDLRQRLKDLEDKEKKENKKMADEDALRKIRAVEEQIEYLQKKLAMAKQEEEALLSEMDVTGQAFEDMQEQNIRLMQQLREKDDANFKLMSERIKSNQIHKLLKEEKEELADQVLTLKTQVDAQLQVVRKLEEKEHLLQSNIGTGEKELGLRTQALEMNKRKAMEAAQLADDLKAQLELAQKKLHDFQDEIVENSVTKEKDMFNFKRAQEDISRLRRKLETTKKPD
T1 sequence (O75150 327-926, chain 2 of 2): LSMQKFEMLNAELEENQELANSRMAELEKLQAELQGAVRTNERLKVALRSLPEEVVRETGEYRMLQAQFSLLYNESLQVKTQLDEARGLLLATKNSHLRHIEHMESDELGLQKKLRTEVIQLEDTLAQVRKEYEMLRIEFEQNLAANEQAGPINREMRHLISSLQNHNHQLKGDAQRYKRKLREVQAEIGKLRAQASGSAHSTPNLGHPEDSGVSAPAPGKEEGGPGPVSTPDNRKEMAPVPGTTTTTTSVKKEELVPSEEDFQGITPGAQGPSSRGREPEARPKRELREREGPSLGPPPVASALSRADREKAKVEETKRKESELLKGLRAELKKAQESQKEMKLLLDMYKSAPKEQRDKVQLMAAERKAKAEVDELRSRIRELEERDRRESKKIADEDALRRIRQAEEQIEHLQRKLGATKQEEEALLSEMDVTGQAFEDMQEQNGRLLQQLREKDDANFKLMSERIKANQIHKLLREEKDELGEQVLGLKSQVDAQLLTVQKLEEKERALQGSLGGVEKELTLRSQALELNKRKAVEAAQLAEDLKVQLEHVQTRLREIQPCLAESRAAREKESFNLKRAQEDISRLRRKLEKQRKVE
Property: kon; scope: individual binders
Provide the reading as a plain figure in M⁻¹ s⁻¹.

Examples with answers:
Binder | Unit name | Assay result
intein-WAC S1 (D577K/E580K/R587E) (domain or fragment, human, UniProt Q9BTA9 570-647, looked up, WAC, human, residues 570-647; source: purified (Ni-NTA, heparin, gel filtration)) HVQGWPAKHAKKQASRLEEEAHNMGTIHMSEICTELKNLRSLVRVCEIQATLREQRILFLRQQIKELEKLKNQNSFMV | M⁻¹ s⁻¹ | 32000
intein-WAC S5 (E635K/E637K/K640E) (domain or fragment, human, UniProt Q9BTA9 570-647, looked up, WAC, human, residues 570-647; source: purified (Ni-NTA, heparin, gel filtration)) HVQGWPADHAEKQASRLREEAHNMGTIHMSEICTELKNLRSLVRVCEIQATLREQRILFLRQQIKKLKKLENQNSFMV | M⁻¹ s⁻¹ | 44100
intein-WAC S4 (R630E) (domain or fragment, human, UniProt Q9BTA9 570-647, looked up, WAC, human, residues 570-647; source: purified (Ni-NTA, heparin, gel filtration)) HVQGWPADHAEKQASRLREEAHNMGTIHMSEICTELKNLRSLVRVCEIQATLREQRILFLEQQIKELEKLKNQNSFMV | M⁻¹ s⁻¹ | 11600

Item intein-CBD-tagged WAC-CT (WAC residues 570–647) (domain or fragment, human, UniProt Q9BTA9 570-647, looked up, WAC, human, residues 570-647; purified on Ni-NTA although no histidine tag is named; also called intein-WAC; WT; source: purified (Ni-NTA, heparin, gel filtration)) HVQGWPADHAEKQASRLREEAHNMGTIHMSEICTELKNLRSLVRVCEIQATLREQRILFLRQQIKELEKLKNQNSFMV : provide kon
46400
